Experiment: clinical
Conditions: human, in vivo
Where a name gives a salt, the structure may show the parent alone.
recorded-endpoint: concentration at 10 min
Please give the number followed by its unit.

Sample answers from the record:
IN: I have this compound here, CC1(C)[C@@H](O)CC[C@]2(C)[C@H]3C(=O)C=C4[C@@H]5C[C@@](C)(C(=O)O)CC[C@]5(C)CC[C@@]4(C)[C@]3(C)CC[C@@H]12 , and I need its recorded concentration at 10 min.
OUT: 1800 ng/mL

IN: I have this compound here, CC(C)=CCC/C(C)=C/CO [GRA1, trans-3,7-dimethyl-2,6-octadien-1-ol] , and I need its recorded concentration at 10 min.
OUT: 5000 ng/mL

Provide the reported concentration at 10 min of each entry below, same order.
1. CC1CCC(C(C)C)C(O)C1 (stereo not shown)
2. CC1(C)[C@@H](O[C@H]2O[C@H](C(=O)O)[C@@H](O)[C@H](O)[C@H]2O[C@@H]2O[C@H](C(=O)O)[C@@H](O)[C@H](O)[C@H]2O)CC[C@]2(C)[C@H]3C(=O)C=C4[C@@H]5C[C@@](C)(C(=O)O)CC[C@]5(C)CC[C@@]4(C)[C@]3(C)CC[C@@H]12 [GR, Glycyrrhizic Acid, Monoammonium salt]

OUT:
1. 24000 ng/mL
2. 30000 ng/mL
